Target system: T1, human IGSF11 (VSIG3) expressed on cells (human, UniProt Q5DX21 23-431)
T1 sequence: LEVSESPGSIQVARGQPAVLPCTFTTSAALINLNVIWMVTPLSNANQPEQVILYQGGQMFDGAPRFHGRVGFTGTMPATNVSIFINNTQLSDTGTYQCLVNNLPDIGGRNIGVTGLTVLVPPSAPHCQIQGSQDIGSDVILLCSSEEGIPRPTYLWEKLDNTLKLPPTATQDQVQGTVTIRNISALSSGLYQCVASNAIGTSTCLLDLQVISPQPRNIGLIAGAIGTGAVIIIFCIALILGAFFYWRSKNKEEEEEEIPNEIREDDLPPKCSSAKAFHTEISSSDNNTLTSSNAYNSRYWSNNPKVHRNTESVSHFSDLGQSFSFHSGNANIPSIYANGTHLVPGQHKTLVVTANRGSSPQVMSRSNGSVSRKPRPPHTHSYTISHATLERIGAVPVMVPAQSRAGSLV
Measurement notes: IgG1 FACS HEK-OE
pEC50: −log10 of the molar value.

Binder	pEC50
A-022 (IgG1 format) (antibody, V domains shown, human IgG1 format) VH: EVQLLESGPGLVKPSQTLSLTCTVSGGSISSGGYYWSWIRQHPGKGLEWIGYIYYSGSTYYNPSLKSRVTISVDTSKNQFSLKLSSVTAADTAVYYCARASRSTDYYFDYWGQGTLVTVSS VL: QPGLTQPPSMSYGLGQTATLTCTGNRNNIGDQGAAWLQQHQGHPPKLLSYRNNNGPSGISERLSASRSGNTASLTISGLQPEDEADYYCSAWDSSLRAWVFGGGTKLTVL	7.30 to 8.00
A-035 (IgG1 format) (antibody, V domains shown, human IgG1 format) VH: QVQLVQSGAEVKKPGASVKVSCKASGYTFTGYYMHWVRQAPGQGLEWMGWINPNSGNTGYAQKFQGRVTMTRNTSISTAYMELSSLRSEDTAVYYCARGRLERGYWYFDLWGRGTLVTVSS VL: NFMLTQPHSVSESPGRTVTISCTRSSGSITSNYVQWYQQRPGSAPTILIYEDKERPSEVPDRFSGSIDISSNSASLTISGLKTEDEADYYCQSYGGTSQGVLFGGGTKVTVL	< 7.30
A-012 (IgG1 format) (antibody, V domains shown, human IgG1 format) VH: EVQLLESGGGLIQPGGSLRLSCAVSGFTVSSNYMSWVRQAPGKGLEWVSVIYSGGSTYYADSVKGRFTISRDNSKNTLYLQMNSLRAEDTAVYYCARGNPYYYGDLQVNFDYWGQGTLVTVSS VL: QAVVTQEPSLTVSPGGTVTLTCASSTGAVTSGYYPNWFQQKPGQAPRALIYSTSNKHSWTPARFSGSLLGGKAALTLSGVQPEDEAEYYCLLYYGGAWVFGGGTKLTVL	7.30 to 8.00
A-026 (IgG1 format) (antibody, V domains shown, human IgG1 format) VH: QVQLQESGPGLVKPSQTLSLTCTVSGGSISSGGYYWSWIRQHPGKGLEWIGYIYYSGSTYYNPSLKSRVTISVDTSKNQFSLKLSSVTAADTAVYYCASWSLGTSNHGWFDPWGQGTLVTVSS VL: QSVLTQPPSASGTPGQRVTISCSGSSSNIGSNTVNWYQQLPGTAPKLLISDNNNRPSGVPDRFSGSKSGTSASLAITGLQAEDEADYYCQSYDSNLSGWVFGGGTKLTVL	< 7.30
A-006 (IgG1 format) (antibody, V domains shown, human IgG1 format; also called A-006-like ABP) VH: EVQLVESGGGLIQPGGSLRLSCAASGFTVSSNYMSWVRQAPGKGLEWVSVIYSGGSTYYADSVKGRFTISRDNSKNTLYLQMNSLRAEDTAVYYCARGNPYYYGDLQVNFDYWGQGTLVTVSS VL: QAVVTQEPSLTVSPGGTVTLTCASSTGAVTSGYYPNWFQQKPGQAPRPLIYSTSNKHSWTPARFSGSLLGGKAALTLSGVQPDDEAEYYCLLYYGGDWVFGGGTKLTVL	7.30 to 8.00
